- Test system: LXFL 529
- assay.method.text: NCI tumour cell line growth inhibition, 48 h
Where a name gives a salt, the structure may show the parent alone. Activity calls are given as the source filed them. Cut-off read from the data, not from the text of the source: active = GI50 up to about 1.1 µM and inactive = higher.
measured.attribute: GI50

Q: Short answer please: GI50, LXFL 529, entry COc1ccc(/C=C/CO)cc1OC
A: > 100 µM (inactive)

New cases:
Q: Short answer please: GI50, LXFL 529, entry NCCSSCCN [CYSTAMINE HYDROCHLORIDE]
A: > 100 µM (inactive)

Q: Short answer please: GI50, LXFL 529, entry CCOC(=O)CC(NC(=O)c1nc[nH]c1[N+](=O)[O-])C(=O)OCC (stereo not drawn)
A: 41.5 µM (inactive)

Q: Short answer please: GI50, LXFL 529, entry CC(=O)NC(CCCNC(=O)N(CCCl)N=O)C(=O)NCc1ccccc1 (stereo not drawn)
A: > 100 µM (inactive)

Q: Short answer please: GI50, LXFL 529, entry O=C1CCN2CCC(=O)c3c2c(cc2ccccc32)N1
A: > 100 µM (inactive)

Q: Short answer please: GI50, LXFL 529, entry CCOC(=O)C1=C(Nc2ccccc2)SC/C1=N\NC(=O)Cc1ccccc1
A: > 100 µM (inactive)

Q: Short answer please: GI50, LXFL 529, entry COc1cc2c(cc1O)CC13CCC(=O)N1CCc1cc(OC)c(O)c-2c13 (stereo not drawn)
A: > 68.1 µM (inactive)

Q: Short answer please: GI50, LXFL 529, entry O=C(CC1C(=O)Nc2ccccc2[S+]1[O-])Nc1cccc(Cl)c1 (stereo not drawn)
A: 91.8 µM (inactive)

Q: Short answer please: GI50, LXFL 529, entry COc1ccc(/C=C\c2cc(OC)c(OC)c(OC)c2)cc1OC(=O)NCCN(C)C
A: < 0.0001 µM (active)
